The reported measurements were obtained from paper PMC12040169.

List of viability at 28.5 h, 10 µM values.
assay: in vitro; conditions: human, hela cells, % viability
A number alone suffices; assume %.

Some entries whose results are on file:
| molecule | viability at 28.5 h, 10 µM, % |
| --- | --- |
| COc1ccc(C2(C(=O)NCc3c(F)cccc3F)CC2)cc1 | 108 |
| Cc1ccc(-c2nsc(SCC(=O)c3ccc(Cl)cc3)n2)cc1 | 92.1 |
| Brc1ccc(OCc2ccccc2)c(CNCCN2CCOCC2)c1 [CBK278171C] | 97 |
| Cn1cccc1CNCc1ccccn1 [CBK269818C] | 96 |
| Cc1nc2c(c(=O)n1C)CN(Cc1cc(=O)n3cccc(O)c3n1)C2 | 78.8 |
| O=C(O)c1nccnc1-c1ccc(COc2cccc3ccccc23)cc1 | 95.4 |

Inquiry: For O=C(c1ccc(F)cc1)N1C[C@@H](c2ccsc2)[C@@H]2CN(Cc3ccccc3)CC[C@@H]21 , what is its reported viability at 28.5 h, 10 µM?
Reply text: 94.7

Inquiry: # query: viability at 28.5 h, 10 µM of entry O=C(CSc1nccn1C1CC1)Nc1ccc(CN2CCOCC2)cc1
Reply text: 98.9

Inquiry: Need viability at 28.5 h, 10 µM, item Cc1cccc2sc(NC(=O)C3COc4ccccc4O3)nc12 (centres unmarked)
Reply text: 113

Inquiry: What measured viability at 28.5 h, 10 µM goes with N#Cc1ccccc1CSc1nnc(-c2ccco2)n1-c1ccccc1 ?
Reply text: 91.8

Inquiry: Given the entry Cn1c(=O)n(C)c2cc(CNC(=O)C3NCCc4[nH]cnc43)ccc21 (centres unmarked) , report its measured viability at 28.5 h, 10 µM.
Reply text: 89.2

Inquiry: For CCc1ncc2c(n1)CN(Cc1cc(=O)n3cccc(C)c3n1)CC2 , what is its reported viability at 28.5 h, 10 µM?
Reply text: 84.6

====

experiment: in vitro; conditions: human, hela cells, % viability
Each entry below carries its recorded viability at 28.5 h, 10 µM.
A number alone suffices; assume %.

Inquiry: So what's the measured viability at 28.5 h, 10 µM for this one? COc1cccc(CCN(Cc2ccc(S(=O)(=O)N3CCOC3=O)cc2)Cc2cccc(OCCO)c2)c1
Reply text: 98.5

Inquiry: If you can, please state the reported viability at 28.5 h, 10 µM value of O=c1c(-c2nc3ccccc3s2)coc2c(CN3CCCCC3)c(O)ccc12 .
Reply text: 106

Inquiry: Entry under review: Fc1ccc(C2(CCCN3CCN(c4ccncc4)CC3)OCCO2)cc1 . Reported viability at 28.5 h, 10 µM?
Reply text: 111

====

Listed here: items and their measured viability at 28.5 h, 10 µM.
experiment: in vitro; details: human, hela cells, % viability
Respond with a number, then the unit of measure.

| compound | valueReported |
| --- | --- |
| Cc1cccn2cc(CSc3nnc4[nH]c5ccccc5n34)nc12 | 94.1% |
| Cn1cc(Cl)c(C2CCCCCN2S(=O)(=O)c2ccc3[nH]c(=O)[nH]c(=O)c3c2)n1 (stereo not drawn) | 89.3% |
| COCCSCc1cn2cc(Br)ccc2n1 | 96.5% |
| O=C(CCNc1n[nH]c(=O)[nH]c1=O)N/N=C\c1ccccc1F | 86.3% |
| COc1ccc(NC(=O)c2cnccn2)c(OC)c1 | 105% |

Inquiry: Please look up its viability at 28.5 h, 10 µM: O=[N+]([O-])c1ccc(N2CCN(S(=O)(=O)c3ccccc3)CC2)cc1NCc1cccnc1
Reply text: 96.5%

Inquiry: // viability at 28.5 h, 10 µM lookup, key: OCc1ccc(-c2nccnc2N2CCCC2CO)cc1 (stereo not drawn)
Reply text: 96.3%

Inquiry: Could you share which viability at 28.5 h, 10 µM value was measured for Cc1cc2nc(/C(C#N)=C\c3cn(CC(=O)Nc4ccc(F)cc4)c4ccccc34)[nH]c2cc1C ?
Reply text: 113%

Inquiry: Find the recorded viability at 28.5 h, 10 µM belonging to O=C(C(Cc1ccccc1)c1ccccc1)N1CCC2(CCN(CCCCOc3ccccc3)C2)C1 (stereo not drawn) and report it.
Reply text: 101%

Inquiry: Find the recorded viability at 28.5 h, 10 µM belonging to CC(CN(C)C(=O)Cn1cccc(C(=O)Nc2ccc(F)cc2)c1=O)c1ccccc1 (stereo not drawn) and report it.
Reply text: 92.5%

Inquiry: What viability at 28.5 h, 10 µM value was documented for this compound, CCCn1ccnc1CN1CCC2(CC1)CC(C(=O)O)N(C(C)=O)C2 (stereo not drawn) ?
Reply text: 92.9%

Inquiry: Give its viability at 28.5 h, 10 µM value. Item: CCC(CCC(=O)Nc1ccccc1Cl)C(=O)O (stereo not drawn)
Reply text: 86.8%

Inquiry: Given the entry CC(C)(C)c1ccc(-c2cnc3nc(O)ccc3c2)cc1 , report its measured viability at 28.5 h, 10 µM.
Reply text: 74.6%

Inquiry: Given the compound CN(C)CCN1CCN(c2cc(Nc3ccc(N(C)C)cc3)nc3ccnn23)CC1 , what is its reported viability at 28.5 h, 10 µM?
Reply text: 93.4%

Inquiry: What value of viability at 28.5 h, 10 µM has been reported for the following compound? CN1CCN(C)C(CNC(=O)c2ccc(-c3ccccc3CO)cc2)C1 (stereo not drawn)
Reply text: 84.2%

Inquiry: Entry COc1cc(C#N)ccc1Oc1ccc([N+](=O)[O-])cc1C(F)(F)F has what viability at 28.5 h, 10 µM?
Reply text: 104%

Inquiry: Name the recorded viability at 28.5 h, 10 µM for COc1cc(CN2CCN(Cc3cccc([N+](=O)[O-])c3)CC2)c([N+](=O)[O-])cc1OC .
Reply text: 99.9%

Inquiry: // viability at 28.5 h, 10 µM lookup, key: COc1ccc([C@@]23CC[C@@H](NC(=O)Nc4ccccc4C(F)(F)F)C[C@@H]2N(C)CC3)cc1OC [CBK036466T]
Reply text: 106%

Inquiry: I am curious: what viability at 28.5 h, 10 µM value has been reported for Cc1nnc2c(=O)n(CC(=O)N3CCN(C(C)C)CC3)c3cccnc3n12 ?
Reply text: 94.3%

Inquiry: What value of viability at 28.5 h, 10 µM has been recorded for this entry: CCN(CC)C(=O)c1sccc1NS(=O)(=O)c1cc(Br)c(Cl)s1
Reply text: 98.3%
